I'd be grateful if you could share measured pIC50 for these entries.
# system-under-test: EZH2 (Homo sapiens)
# Sequence (Q15910 whole entry): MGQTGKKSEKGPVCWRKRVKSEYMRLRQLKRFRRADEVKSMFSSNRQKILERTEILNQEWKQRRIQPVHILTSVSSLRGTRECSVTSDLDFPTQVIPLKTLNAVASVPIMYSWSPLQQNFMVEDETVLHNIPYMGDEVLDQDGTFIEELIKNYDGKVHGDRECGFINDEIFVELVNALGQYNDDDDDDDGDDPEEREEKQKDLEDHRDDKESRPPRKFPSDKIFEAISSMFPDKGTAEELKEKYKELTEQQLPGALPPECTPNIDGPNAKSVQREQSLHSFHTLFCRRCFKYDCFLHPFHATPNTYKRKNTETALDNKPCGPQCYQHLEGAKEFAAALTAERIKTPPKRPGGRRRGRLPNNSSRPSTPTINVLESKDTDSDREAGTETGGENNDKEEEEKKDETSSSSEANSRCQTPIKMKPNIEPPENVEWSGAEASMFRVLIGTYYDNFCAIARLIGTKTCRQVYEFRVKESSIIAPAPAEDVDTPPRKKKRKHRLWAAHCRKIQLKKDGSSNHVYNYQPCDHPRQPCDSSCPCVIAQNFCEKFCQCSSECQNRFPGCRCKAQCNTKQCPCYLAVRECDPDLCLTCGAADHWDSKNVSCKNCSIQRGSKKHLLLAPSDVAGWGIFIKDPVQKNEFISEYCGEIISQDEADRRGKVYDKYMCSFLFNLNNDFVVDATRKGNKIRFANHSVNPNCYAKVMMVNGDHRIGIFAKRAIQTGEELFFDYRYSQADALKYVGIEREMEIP
# Sequence (O75530 whole entry partner): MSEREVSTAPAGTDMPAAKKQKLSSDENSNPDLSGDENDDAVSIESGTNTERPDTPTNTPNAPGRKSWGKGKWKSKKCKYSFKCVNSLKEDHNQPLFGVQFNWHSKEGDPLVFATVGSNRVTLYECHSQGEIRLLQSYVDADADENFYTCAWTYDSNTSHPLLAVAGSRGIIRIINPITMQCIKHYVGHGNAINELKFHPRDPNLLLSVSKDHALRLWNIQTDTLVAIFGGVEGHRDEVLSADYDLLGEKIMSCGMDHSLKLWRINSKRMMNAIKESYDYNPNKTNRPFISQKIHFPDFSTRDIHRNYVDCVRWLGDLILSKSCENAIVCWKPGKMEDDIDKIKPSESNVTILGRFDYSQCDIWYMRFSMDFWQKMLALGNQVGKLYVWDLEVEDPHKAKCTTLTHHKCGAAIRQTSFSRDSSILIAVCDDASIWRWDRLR
# Sequence (Q15022 whole entry partner): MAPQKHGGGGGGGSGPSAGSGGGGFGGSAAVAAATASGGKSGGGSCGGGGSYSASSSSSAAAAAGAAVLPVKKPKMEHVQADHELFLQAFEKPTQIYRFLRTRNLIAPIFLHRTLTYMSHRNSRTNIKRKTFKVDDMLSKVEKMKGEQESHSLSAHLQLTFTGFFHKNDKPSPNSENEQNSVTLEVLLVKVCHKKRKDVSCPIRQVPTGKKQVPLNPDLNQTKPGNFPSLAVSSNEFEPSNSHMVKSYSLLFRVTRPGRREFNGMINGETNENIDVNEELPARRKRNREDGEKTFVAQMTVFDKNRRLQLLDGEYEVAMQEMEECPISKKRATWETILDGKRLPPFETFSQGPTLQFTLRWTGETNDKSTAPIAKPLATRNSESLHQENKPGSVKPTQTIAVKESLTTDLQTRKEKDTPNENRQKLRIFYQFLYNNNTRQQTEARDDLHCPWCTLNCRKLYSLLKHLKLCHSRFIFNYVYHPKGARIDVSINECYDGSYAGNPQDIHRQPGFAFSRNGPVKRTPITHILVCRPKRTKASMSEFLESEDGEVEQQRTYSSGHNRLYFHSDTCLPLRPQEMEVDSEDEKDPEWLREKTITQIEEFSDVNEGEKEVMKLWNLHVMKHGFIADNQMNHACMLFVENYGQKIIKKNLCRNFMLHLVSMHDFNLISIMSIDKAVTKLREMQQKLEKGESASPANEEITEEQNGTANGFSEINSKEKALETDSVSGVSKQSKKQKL
# method-description: EZH2 assay: rPRC2 with biotinylated oligonucleosome substrates and 3H SAM, FlashPlate scintillation counting, IC50
# Type: biochemical
# details: rPRC2, biotinylated oligonucleosome substrates, 3H SAM; read-out: EZH2 IC50
pIC50: −log10 of the molar value.

So, `CC1(C)CC(NC(=O)c2ccc(Sc3ccccc3)cc2)CC(C)(C)N1` ? Its pIC50 was 4.10 to 4.70

Sure, the documented pIC50 for `CC1(C)CC(NC(=O)c2ccc(Oc3cccc(CN4CCCCC4=O)c3)c(Cl)c2)CC(C)(C)N1` is 4.70 to 5.30

The compound `CC1(C)CC(NC(=O)c2ccc(COc3cccc(-c4cncc(C#N)c4)c3)cc2)CC(C)(C)N1` showed pIC50 equal to 4.10 to 4.70

pIC50 for `CC1(C)CC(NC(=O)c2ccc(Oc3cccc4c(=O)[nH]ccc34)cc2)CC(C)(C)N1` is < 4.10

// `CC1(C)CC(NC(=O)c2ccc(Oc3c(F)cccc3C#N)cc2)CC(C)(C)N1` : pIC50 value = 4.10 to 4.70

Recorded result, `CC1(C)CC(NC(=O)c2ccc(COc3cccc(-c4ccc(NCCN5CCOCC5)nc4)c3)cc2)CC(C)(C)N1` , pIC50: < 4.10

Notebook: `CC1(C)CC(NC(=O)c2ccc(Oc3cccnc3C#N)c(Br)c2)CC(C)(C)N1` , pIC50 read as > 5.30

Short answer for `COc1ccnc(Oc2ccc(C(=O)NC3CC(C)(C)NC(C)(C)C3)cc2)n1` : pIC50 was < 4.10

Item: `CC1(C)CC(NC(=O)c2ccc(Oc3ccccc3C#N)c(C3CC3)c2)CC(C)(C)N1` | pIC50: > 5.30

Record `CC1(C)CC(NC(=O)c2ccc(CCOc3ccccc3)cc2)CC(C)(C)N1` . Reported pIC50: < 4.10

Data point: `CNc1cccc(Oc2ccc(C(=O)NC3CC(C)(C)NC(C)(C)C3)cc2Cl)c1C#N` ; pIC50 = > 5.30

So for `CC1(C)CC(NC(=O)c2ccc(COc3cccc(-c4ccc(O)cc4)c3)cc2)CC(C)(C)N1` , the logged pIC50 turned out to be 4.10 to 4.70

Just so you know, measured pIC50 for CC1(C)CC(NC(=O)c2ccc(Oc3cccc(-c4ccnnc4)c3C#N)c(Cl)c2)CC(C)(C)[S+]1[O-] (stereo not shown) came out at 4.10 to 4.70

Lab note: `CC1(C)CC(NC(=O)c2ccc(Oc3cccc(-c4cnc(N)nc4)c3C#N)c(Cl)c2)CC(C)(C)N1` gave pIC50 of > 5.30

response.value for O=C(N[C@H]1CCN(Cc2ccccc2)C1)c1ccc(Oc2ccccc2)cc1 [Compound I-100] (field: pIC50) = < 4.10

Summary for this compound, `CC(=O)Nc1ccc(-c2cccc(OCc3ccc(C(=O)NC4CC(C)(C)NC(C)(C)C4)cc3)c2)cc1` : pIC50 is 4.10 to 4.70

# pIC50 of CC1(C)CC(NC(=O)c2ccc(Oc3cccc(C4CCCN4)c3C#N)c(Cl)c2)CC(C)(C)N1 (stereo not shown) = > 5.30

Form: compound = `CC1(C)CC(NC(=O)c2ccc(OCc3ccc([N+](=O)[O-])cc3)cc2)CC(C)(C)N1` ; pIC50 = < 4.10

Kindly note the recorded pIC50 for `CC(C)NCc1cccc(Oc2ccc(C(=O)NC3CC(C)(C)NC(C)(C)C3)cc2Cl)c1` , which is 4.10 to 4.70

compound `COc1cccc(Oc2ccc(C(=O)NC3CC(C)(C)NC(C)(C)C3)cc2)c1` , pIC50 observed: < 4.10

What the record says about `CC(=O)NCc1cccc(Oc2ccc(C(=O)NC3CC(C)(C)NC(C)(C)C3)cc2Cl)c1` : pIC50 is > 5.30

What the record says about `CC1(C)CC(NC(=O)c2ccc(Oc3ccccc3N3CCOCC3)cc2)CC(C)(C)N1` : pIC50 is 4.10 to 4.70

Sample `CC1(C)CC(NC(=O)c2ccc(Oc3ccc(F)cc3)cc2)CC(C)(C)N1` ; pIC50 observed: < 4.10

GET /value?item= `Cc1cc(C(=O)NC2CC(C)(C)NC(C)(C)C2)ccc1Oc1cccc(-c2ccccc2)c1C#N` &field=pIC50 returns > 5.30

So for `CC1(C)CC(NC(=O)c2ccc(Nc3ccccc3)nc2)CC(C)(C)N1` , the logged pIC50 turned out to be < 4.10

The compound `Cc1ccccc1Sc1ccc(C(=O)NC2CC(C)(C)NC(C)(C)C2)cc1Cl` showed pIC50 equal to 4.10 to 4.70

Documented pIC50 of CC1(C)CC(NC(=O)c2ccc(N3CCC(c4ccccc4)C3)c(Cl)c2)CC(C)(C)N1 (stereo not shown) : 4.10 to 4.70

Per the records, this compound ( `CC1(C)CC(NC(=O)c2ccc(Oc3ccccc3F)cc2)CC(C)(C)N1` ) has pIC50 equal to 4.10 to 4.70

Looking up CC1(C)CC(NC(=O)c2ccc(Oc3cccc(-c4ccnnc4)c3C#N)c(Cl)c2)CC(c2ccccc2)N1 (stereo not shown) , I found its pIC50 recorded as > 5.30

Briefly, pIC50 measured for `CC1(C)CC(NC(=O)c2ccc(Oc3ccccc3C#N)c(F)c2)CC(C)(C)N1` : > 5.30

Per the records, this compound ( `O=C(NC1CCN(C(=O)c2ccccc2)CC1)c1ccc(Oc2ccccc2)cc1` ) has pIC50 equal to < 4.10
